Test system: SW480
Test: cells
Conditions: Homo sapiens, SW480, 72 h
value type: IC50 (µM)
State the answer as a number, implicitly in µM.

Enquiry: What value of IC50 has been recorded for this entry: Cc1cc([N+](=O)[O-])ccc1NS(=O)(=O)c1cc(Cl)ccc1Cl
Return: 10
